Test: Ratio of drug level in brain to plasma in Sprague-Dawley rat at 10 mg/kg, po
Type: ADME, organism-based
Set-up: dose 10 mg/kg, route oral
Conditions: read-out: BPR
Parameter Measured: Kp

Please review the following examples before continuing.
COc1c(C(=O)N[C@H]2CCCC[C@@H]2O)cc(Cc2ccc(-c3cccnc3)nc2)c2ccccc12 : 0.2
COc1c(C(=O)N[C@H]2CCCC[C@@H]2O)cc(Cc2ccc(C)nc2)c2ccccc12 : 0.21
COc1c(C(=O)N[C@H]2CCCC[C@@H]2O)cc(Cc2ccc(Cl)nc2)c2ccccc12 : 0.22

I: COc1c(C(=O)N[C@H]2CCCC[C@@H]2O)cc(Cc2ccc(-c3cnn(C)c3)nc2)c2ccccc12
II: COc1c(C(=O)N[C@H]2CCCC[C@@H]2O)cc(Cc2ccc(-n3cccn3)nc2)c2ccccc12
[in] Hi! Which is lower in terms of Kp, the first one I or the second one II ? Indicate your choice by writing its label.
[out] I

---

Target: Muscarinic acetylcholine receptor M1 (Homo sapiens) (UniProt P11229)
Sequence (P11229 whole entry): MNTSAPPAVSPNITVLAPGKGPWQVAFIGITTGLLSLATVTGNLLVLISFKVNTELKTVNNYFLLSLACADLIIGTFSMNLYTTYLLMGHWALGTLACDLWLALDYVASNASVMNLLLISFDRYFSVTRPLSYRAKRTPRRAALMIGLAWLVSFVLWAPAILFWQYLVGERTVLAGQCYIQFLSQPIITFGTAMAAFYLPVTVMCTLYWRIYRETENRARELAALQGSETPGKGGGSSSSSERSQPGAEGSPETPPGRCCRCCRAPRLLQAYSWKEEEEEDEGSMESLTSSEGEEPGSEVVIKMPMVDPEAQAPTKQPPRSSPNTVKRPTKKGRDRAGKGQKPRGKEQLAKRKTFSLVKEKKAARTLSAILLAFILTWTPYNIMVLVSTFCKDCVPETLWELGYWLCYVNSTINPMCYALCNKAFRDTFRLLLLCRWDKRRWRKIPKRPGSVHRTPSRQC
Test: Positive allosteric modulation of human muscarinic M1 receptor expressed CHO cells assessed as intrinsic potency of acetylcholine-induced calcium mobilization by FLIPR assay
Assay type: functional, cell-based
Parameter Measured: Activity (µM)

COc1c(C(=O)O)cc(CN2CCC(C#N)(c3ccccn3)CC2)c2ccccc12 : 5.4

A: COc1c(C(=O)N[C@H]2CCCC[C@@H]2O)cc(CN2CCN(c3cc4ccccc4cn3)CC2)c2ccccc12
B: CCOc1c(C(=O)N[C@H]2CCCC[C@@H]2O)cc(Cc2ccc(Cl)nc2)c2ccccc12
C: O=C(N[C@H]1CCCC[C@@H]1O)c1cc(Cc2ccc(Cl)nc2)c2ccccc2c1O
[in] Kindly order the items shown according to Activity, from the highest value down. Present the labels in the sequence the task asks for.
[out] C, A, B

---

Test system: Brain
Test: Drug level in Sprague-Dawley rat brain at 10 mg/kg, po; note: time not given here
Format: ADME, organism-based
Design: dose 10 mg/kg, route oral
Settings: in vivo, read-out: Drug uptake
Parameter Measured: concentration (nM)

COc1c(C(=O)N[C@H]2CCCC[C@@H]2O)cc(Cc2ccc(Cl)nc2)c2ccccc12 : 420
COc1c(C(=O)N[C@H]2CCCC[C@@H]2O)cc(Cc2ccc(C)nc2)c2ccccc12 : 1200
COc1c(C(=O)N[C@H]2CCCC[C@@H]2O)cc(Cc2ccc(-n3cccn3)nc2)c2ccccc12 : 370

a: COc1c(C(=O)N[C@H]2CCCC[C@@H]2O)cc(Cc2ccc(-c3cnn(C)c3)nc2)c2ccccc12
b: COc1c(C(=O)N[C@H]2CCCC[C@@H]2O)cc(Cc2ccc(-c3cccnc3)nc2)c2ccccc12
[in] Could you please tell me which of these two has the higher concentration: a or b ? Indicate your choice by writing its label.
[out] a

---

Target: ATP-dependent translocase ABCB1 (Homo sapiens, UniProt P08183)
Sequence (P08183 whole entry): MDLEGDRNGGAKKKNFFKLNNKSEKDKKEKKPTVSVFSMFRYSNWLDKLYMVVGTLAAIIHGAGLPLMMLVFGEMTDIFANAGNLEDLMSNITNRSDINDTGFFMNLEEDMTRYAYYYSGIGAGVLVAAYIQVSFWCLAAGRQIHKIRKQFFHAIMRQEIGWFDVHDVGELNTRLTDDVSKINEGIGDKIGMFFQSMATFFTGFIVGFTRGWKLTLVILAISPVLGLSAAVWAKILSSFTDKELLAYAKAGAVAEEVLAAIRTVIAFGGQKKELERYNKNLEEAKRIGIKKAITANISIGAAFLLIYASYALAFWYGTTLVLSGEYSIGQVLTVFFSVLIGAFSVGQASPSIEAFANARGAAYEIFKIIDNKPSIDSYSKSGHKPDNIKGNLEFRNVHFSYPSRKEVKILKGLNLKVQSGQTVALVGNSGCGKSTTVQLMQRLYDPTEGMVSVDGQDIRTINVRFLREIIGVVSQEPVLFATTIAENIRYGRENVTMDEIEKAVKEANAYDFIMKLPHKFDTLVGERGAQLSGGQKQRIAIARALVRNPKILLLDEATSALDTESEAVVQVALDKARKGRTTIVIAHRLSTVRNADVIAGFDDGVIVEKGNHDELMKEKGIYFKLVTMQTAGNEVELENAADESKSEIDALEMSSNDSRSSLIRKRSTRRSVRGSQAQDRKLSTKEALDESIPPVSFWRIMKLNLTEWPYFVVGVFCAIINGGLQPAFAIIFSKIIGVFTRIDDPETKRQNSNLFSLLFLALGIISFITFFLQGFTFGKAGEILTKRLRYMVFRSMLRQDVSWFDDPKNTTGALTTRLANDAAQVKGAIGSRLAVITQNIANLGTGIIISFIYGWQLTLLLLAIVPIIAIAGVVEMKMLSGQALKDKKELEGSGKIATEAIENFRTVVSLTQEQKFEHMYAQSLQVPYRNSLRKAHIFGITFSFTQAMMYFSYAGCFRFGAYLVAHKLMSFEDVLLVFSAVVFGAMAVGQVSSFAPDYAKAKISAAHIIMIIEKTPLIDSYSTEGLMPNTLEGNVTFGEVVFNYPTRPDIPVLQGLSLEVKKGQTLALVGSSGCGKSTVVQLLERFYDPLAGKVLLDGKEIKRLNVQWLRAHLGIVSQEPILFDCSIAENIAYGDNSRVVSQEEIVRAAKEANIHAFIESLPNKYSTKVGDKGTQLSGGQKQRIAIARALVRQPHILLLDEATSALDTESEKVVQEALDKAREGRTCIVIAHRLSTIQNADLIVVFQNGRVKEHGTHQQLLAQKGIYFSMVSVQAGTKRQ
Assay: Activity at human MDR1 assessed as ratio of permeability from basolateral to apical side over permeability from apical to basolateral side by cell based assay
Parameter Measured: Ratio

COc1c(C(=O)N[C@H]2CCCC[C@@H]2O)cc(CN2CCC(C#N)(c3ccccn3)CC2)c2ccccc12 : 1.7
COc1c(C(=O)N[C@H]2CCCC[C@@H]2O)cc(Cc2ccc(-c3cnn(C)c3)nc2)c2ccccc12 : 1.1
COc1c(C(=O)N[C@H]2CCCC[C@@H]2O)cc(Cc2ccc(-c3cccnc3)nc2)c2ccccc12 : 0.9
COc1c(C(=O)N[C@H]2CCCC[C@@H]2O)cc(Cc2ccc(C)nc2)c2ccccc12 : 1.6
COc1c(C(=O)N[C@H]2CCCC[C@@H]2O)cc(Cc2ccc(Cl)nc2)c2ccccc12 : 1.3

I: COc1c(C(=O)N[C@H]2CCCC[C@@H]2O)cc(Cc2ccc(-n3cccn3)nc2)c2ccccc12
II: N#CC1(c2ccccn2)CCN(Cc2cc(C(=O)N[C@H]3CCCC[C@@H]3O)c(=O)n3ccccc23)CC1
[in] Could you please tell me which of these two has the higher Ratio: I or II ? Indicate your choice by writing its label.
[out] II
(II: 11.1, I: 1.7)

---

Assay: Ratio of drug level in cerebrospinal fluid in Sprague-Dawley rat at 10 mg/kg, po to unbound fraction in rat plasma
Type: ADME, organism-based, CSF/Plasma
Set-up: dose 10 mg/kg, route oral
Conditions: in vivo
Parameter Measured: Ratio

COc1c(C(=O)N[C@H]2CCCC[C@@H]2O)cc(Cc2ccc(-n3cccn3)nc2)c2ccccc12 : 0.34

a: COc1c(C(=O)N[C@H]2CCCC[C@@H]2O)cc(Cc2ccc(-c3cccnc3)nc2)c2ccccc12
b: COc1c(C(=O)N[C@H]2CCCC[C@@H]2O)cc(Cc2ccc(C)nc2)c2ccccc12
[in] Could you please tell me which of these two has the higher Ratio: a or b ? Indicate your choice by writing its label.
[out] b
